target_or_system: recombinant human cGAS (aa147-522) (Homo sapiens)
Construct: recombinant human cGAS (aa147-522); His6-SUMO (cleaved yes); made in house; host or cells: E. coli BL21/pLys
Sequence (Q8N884 147-522): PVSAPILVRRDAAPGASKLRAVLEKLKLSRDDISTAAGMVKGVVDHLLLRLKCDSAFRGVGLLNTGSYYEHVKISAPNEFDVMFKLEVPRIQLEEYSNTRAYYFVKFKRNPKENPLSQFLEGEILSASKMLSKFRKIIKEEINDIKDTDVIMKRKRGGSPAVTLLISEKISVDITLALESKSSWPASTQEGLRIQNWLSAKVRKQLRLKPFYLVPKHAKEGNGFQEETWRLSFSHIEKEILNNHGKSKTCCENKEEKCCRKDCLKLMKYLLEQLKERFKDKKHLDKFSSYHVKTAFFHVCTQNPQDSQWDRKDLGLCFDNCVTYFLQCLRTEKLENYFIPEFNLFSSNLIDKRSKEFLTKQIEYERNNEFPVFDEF
experimental_protocol: In vitro inhibition assay of cGAS activity (ATP consumption, KinaseGlo Max)
Type: biochemical
recorded_conditions: Table 3, read-out: cGAS Inhibition Results IC50
measured_endpoint: IC50

Exam item: Respond only with IC50 recorded for O=C(O)CCOC[C@H]1CCCCN1c1cc(-n2ccnc2)c2ccc(Cl)c(Cl)c2n1 [I-790]
Marked response: 2 to 30 µM

Exam item: Respond only with IC50 recorded for CC1(C)C2[C@@H](C(=O)O)N(c3cc(-n4ccnc4)c4ccc(Cl)c(Cl)c4n3)C[C@@H]21 (some centres unmarked) [I-517]
Marked response: < 2 µM

Exam item: Give the measured IC50 for CC(COC[C@@H]1CCCN1c1cc(-n2ccnc2)c2ccc(Cl)c(Cl)c2n1)C(=O)O (some centres unmarked) [I-719]
Marked response: < 2 µM

Exam item: Identify measured IC50 corresponding to NC(=O)[C@@H]1C[C@@H](O)CN1c1cc(-n2ccnc2)c2ccc(Cl)c(Cl)c2n1 [I-502]
Marked response: 2 to 30 µM

Exam item: Annotate the compound O=C(O)CCOCCN(Cc1ccccc1)c1cc(-n2ccnc2)c2ccc(Cl)c(Cl)c2n1 [I-837] with its measured IC50.
Marked response: < 2 µM

Exam item: Please give measured IC50 of the following entry: C[C@H]1CC[C@@H](C(=O)O)N1c1cc(-n2ccnc2)c2ccc(Cl)c(Cl)c2n1 [I-507]
Marked response: < 2 µM

Exam item: Note down IC50 recorded for CC(C)OC(=O)[C@@H]1[C@@H](O)CCN1c1cc(-n2ccnc2)c2ccc(Cl)c(Cl)c2n1 [I-600]
Marked response: 2 to 30 µM

Exam item: Determine from records and report IC50 for O=C(O)CCOCC(Cc1ccccc1)Nc1cc(-n2ccnc2)c2ccc(Cl)c(Cl)c2n1 (centres unmarked) [I-695]
Marked response: 2 to 30 µM

----------
target_or_system: recombinant human cGAS (aa147-522) (Homo sapiens)
Construct: recombinant human cGAS (aa147-522); His6-SUMO (cleaved yes); made in house; host or cells: E. coli BL21/pLys
experimental_protocol: In vitro inhibition assay of cGAS activity (ATP consumption, KinaseGlo Max)
Format: biochemical
recorded_conditions: Table 3, read-out: cGAS Inhibition Results IC50
pIC50: −log10 of the molar value.
measured_endpoint: pIC50

Exam item: Provide pIC50 value for the following compound: CC(C)OC(=O)[C@@H]1CCCN1c1cc(-n2ccnc2)c2ccc(Cl)c(Cl)c2n1 [I-595]
Marked response: 4.52 to 5.70

Exam item: Let me know recorded pIC50 for COC(=O)[C@@H]1C[C@@H](O)CN1c1cc(-n2ccnc2)c2ccc(Cl)c(Cl)c2n1 [I-472] , thanks.
Marked response: 4.52 to 5.70

Exam item: Please give the documented pIC50 of O=C(O)Cc1ccccc1CNc1cc(-n2ccnc2)c2ccc(Cl)c(Cl)c2n1 [I-888]
Marked response: > 5.70

Exam item: Answer with the recorded pIC50 of O=C(O)[C@@H]1[C@H]2C[C@H]2CN1c1cc(-n2ccnc2)c2ccc(Cl)c(Cl)c2n1 [I-480] only.
Marked response: > 5.70

Exam item: Return pIC50 (reported value) for this compound: O=C(O)CCOC[C@H](O)[C@@H]1CCCN1c1cc(-n2ccnc2)c2ccc(Cl)c(Cl)c2n1 [I-724]
Marked response: > 5.70

Exam item: State its pIC50: COC(=O)[C@@H]1CC(C)(C)CN1c1cc(-n2ccnc2)c2ccc(Cl)c(Cl)c2n1 [I-583]
Marked response: 4.52 to 5.70

Exam item: Read off the recorded pIC50 for O=C(O)C1CCCCN1C(=O)C[C@@H]1CCCN1c1cc(-n2ccnc2)c2ccc(Cl)c(Cl)c2n1 (stereo partly drawn) [I-533]
Marked response: > 5.70

Exam item: Give the measured pIC50 for O=C(O)CCOC[C@@H]1CCCN(c2cc(-n3ccnc3)c3ccc(Cl)c(Cl)c3n2)C1 [I-750]
Marked response: > 5.70

Exam item: Kindly indicate its recorded pIC50. Item: O=C(O)CCOC[C@@H]1C[C@H](Oc2ccccc2)CN1c1cc(-n2ccnc2)c2ccc(Cl)c(Cl)c2n1 [I-713]
Marked response: > 5.70

Exam item: Give the value of pIC50 reported for the following: O=C(O)CNC(=O)O[C@H]1C[C@@H](C(=O)O)N(c2cc(-n3ccnc3)c3ccc(Cl)c(Cl)c3c2)C1 [I-570]
Marked response: 4.52 to 5.70

Exam item: Return reported pIC50. Input compound: O=C(O)CCOC[C@@H]1CC(F)(F)CN1c1cc(-n2ccnc2)c2ccc(Cl)c(Cl)c2n1 [I-699]
Marked response: > 5.70

Exam item: Note pIC50 for the compound shown: COC(=O)CCN(CCC(=O)OC)C[C@@H]1CCCN1c1cc(-n2ccnc2)c2ccc(Cl)c(Cl)c2n1 [I-757]
Marked response: 4.52 to 5.70

Exam item: // Input: CCOC(=O)[C@@H]1CC[C@H](C)N1c1cc(-n2ccnc2)c2ccc(Cl)c(Cl)c2n1 [I-460] . Output its pIC50 only.
Marked response: 4.52 to 5.70

Exam item: For the compound O=C(O)CCCCCNc1cc(-c2cn[nH]c2)c2cc(Cl)cc(Cl)c2n1 [I-854] , give its reported pIC50.
Marked response: > 5.70

Exam item: State its pIC50 for this compound: COC(=O)[C@@H]1C[C@H](C(F)(F)F)CN1c1cc(-n2ccnc2)c2ccc(Cl)c(Cl)c2n1 [I-462]
Marked response: 4.52 to 5.70

Exam item: # return recorded pIC50 for input CC(=O)O[C@H]1CCN(c2cc(-n3ccnc3)c3ccc(Cl)c(Cl)c3n2)[C@@H]1C(=O)O [I-643]
Marked response: > 5.70

Exam item: // Input: O=C(O)CNC(=O)O[C@@H]1C[C@@H](C(=O)O)N(c2cc(-n3ccnc3)c3ccc(Cl)c(Cl)c3n2)C1 [I-607] . Output its pIC50 only.
Marked response: > 5.70

Exam item: // fetch pIC50 given entry COc1cccc2c(-c3cn[nH]c3)cc(N3CCC[C@H]3COCCC(=O)O)nc12 [I-859]
Marked response: 4.52 to 5.70

Exam item: In one line, give reported pIC50 of the entry C[C@@H](NC(=O)CCN(C)c1cc(-n2ccnc2)c2ccc(Cl)c(Cl)c2n1)C(=O)O [I-563] .
Marked response: > 5.70

Exam item: Write down pIC50 measured for item C[C@@H]1C[C@@H](COCCC(=O)O)N(c2cc(-n3ccnc3)c3ccc(Cl)c(Cl)c3n2)C1 [I-795]
Marked response: > 5.70

Exam item: For the compound CN(CCS(=O)(=O)N1CCCC(C(=O)O)C1)c1cc(-n2ccnc2)c2ccc(Cl)c(Cl)c2n1 (stereo not drawn) [I-631] , give its reported pIC50.
Marked response: > 5.70

Exam item: Name the recorded pIC50 of the item COC(=O)[C@@H]1C[C@@H](OCCC(=O)O)CN1c1cc(-n2ccnc2)c2ccc(Cl)c(Cl)c2n1 [I-869] in your answer.
Marked response: 4.52 to 5.70

Exam item: Provide measured pIC50 value, entry: CCOC(=O)[C@@H]1CCCN1c1cc(-n2ccnc2)c2ccc(Cl)c(Cl)c2n1 [I-594]
Marked response: 4.52 to 5.70

Exam item: State, in one line, measured pIC50 of OC[C@@H]1CC(F)(F)CN1c1cc(-n2ccnc2)c2ccc(Cl)c(Cl)c2n1 [I-504]
Marked response: > 5.70

Exam item: Hello, please tell me recorded pIC50 for this one: N[C@@H]1C[C@@H](C(=O)O)N(c2cc(-n3ccnc3)c3ccc(Cl)c(Cl)c3n2)C1 [I-519]
Marked response: > 5.70

Exam item: Supply measured pIC50 of O=C(O)CO[C@@H]1CCN(c2cc(-n3ccnc3)c3ccc(Cl)c(Cl)c3n2)C1 [I-766] in your reply.
Marked response: > 5.70

Exam item: Kindly indicate its recorded pIC50. Item: COC(=O)/C=C/C[C@@H]1CCCN1c1cc(-n2ccnc2)c2ccc(Cl)c(Cl)c2n1 [I-686]
Marked response: 4.52 to 5.70

Exam item: Please report the measured pIC50 for O=C(O)CCOC[C@@H]1Cc2ccccc2N1c1cc(-n2ccnc2)c2ccc(Cl)c(Cl)c2n1 [I-806]
Marked response: > 5.70

Exam item: Quick one: give measured pIC50 for O=C(O)[C@H]1[C@@H](O)CCN1c1cc(-n2ccnc2)c2ccc(Cl)c(Cl)c2n1 [I-499]
Marked response: > 5.70

Exam item: Item O=C(O)c1cnn(CCNc2cc(-n3ccnc3)c3ccc(Cl)c(Cl)c3n2)c1 [I-889] : provide pIC50
Marked response: > 5.70

Exam item: Provide pIC50 value for the following compound: O=C(O)CCC(=O)NNc1cc(-n2ccnc2)c2ccc(Cl)c(Cl)c2n1 [I-759]
Marked response: > 5.70

Exam item: Answer with the recorded pIC50 of O=C(O)CCOCc1cccc(-c2cc(-n3ccnc3)c3ccc(Cl)c(Cl)c3n2)c1 [I-840] only.
Marked response: > 5.70

Exam item: Write down pIC50 measured for item OC[C@@H]1CCN1c1cc(-n2ccnc2)c2ccc(Cl)c(Cl)c2n1 [I-659]
Marked response: > 5.70
